Listing: IC50 of selected compounds
- target_entity: human FLT3 protein (FLT3 (WT)) (Homo sapiens, UniProt P36888)
- Construct: human FLT3 protein (intracellular region, 564 to 993 aa); GST; purchased Carna Biosciences; host or cells: baculovirus expression system
- Sequence (P36888 564-993): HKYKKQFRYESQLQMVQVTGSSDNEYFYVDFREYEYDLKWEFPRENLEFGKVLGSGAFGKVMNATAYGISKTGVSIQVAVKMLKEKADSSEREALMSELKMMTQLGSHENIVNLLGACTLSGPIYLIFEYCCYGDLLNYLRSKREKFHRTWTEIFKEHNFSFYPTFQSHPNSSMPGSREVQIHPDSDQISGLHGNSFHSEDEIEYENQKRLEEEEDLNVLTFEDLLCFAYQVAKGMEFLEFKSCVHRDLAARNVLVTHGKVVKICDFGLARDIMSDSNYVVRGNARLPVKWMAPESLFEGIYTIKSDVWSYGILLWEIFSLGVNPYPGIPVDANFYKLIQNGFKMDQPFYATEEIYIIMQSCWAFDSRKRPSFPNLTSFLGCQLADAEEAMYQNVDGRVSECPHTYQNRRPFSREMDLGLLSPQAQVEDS
- experiment: FLT3 inhibition test (FLT3 enzyme inhibition, time-resolved fluorescence of substrate peptide phosphorylation)
- Type: biochemical
- run_parameters: GST-fused human FLT3 (564 to 993 aa), ATP 50 μM; read-out: FLT3 (WT) enzyme inhibition activity
measured_quantity: IC50

{"compound": "C[C@@H](C(=O)NCCCC#Cc1cnc(Nc2ccc(C#N)cc2)nc1N1CCC(F)(F)C1)N(C)C(=O)/C=C/CN(C)C", "result": "< 10 nM"}
{"compound": "C=CC(=O)NCC(=O)Nc1ccccc1CNC(=O)c1cnc(NCCc2ccncc2)nc1NCCC", "result": "10 to 100 nM"}
{"compound": "CCCNc1nc(Nc2ccc(C(N)=O)cc2)ncc1C(=O)NCCCNC(C)(C)CNC(=O)/C=C/CN(C)C", "result": "< 10 nM"}
{"compound": "CCCNc1nc(Nc2ccc(C#N)cc2)ncc1C#CCCCNC(=O)CNC(=O)/C=C/CN(C)C", "result": "< 10 nM"}
{"compound": "CN(C)C/C=C/C(=O)N(C)CC(=O)NCCCC#Cc1cnc(Nc2ccc(F)cc2)nc1NCCCF", "result": "< 10 nM"}
{"compound": "CCCNc1nc(Nc2ccc(F)cc2)ncc1C#CCCCNC(=O)[C@H](C)N(C)C(=O)/C=C/CN(C)C", "result": "< 10 nM"}
{"compound": "CCCNc1nc(Nc2ccc(C(N)=O)cc2)ncc1C(=O)Nc1cccc(NC(=O)[C@H](C)N(C)C(=O)/C=C/C(C)N(C)C)c1 (some centres unmarked)", "result": "< 10 nM"}
{"compound": "CCCNc1nc(Nc2ccc(C(N)=O)cc2)ncc1C#CCCCNC1(CNC(=O)/C=C/CN(C)C)CCOCC1", "result": "< 10 nM"}
{"compound": "CC(C)CNc1nc(Nc2ccc(C#N)cc2)ncc1C#CCCCNC(=O)[C@H](C)N(C)C(=O)/C=C/CN(C)C", "result": "< 10 nM"}
{"compound": "COCCCNc1nc(Nc2ccc(C#N)cc2)ncc1C#CCCCNC(=O)[C@H](C)N(C)C(=O)/C=C/CN(C)C", "result": "< 10 nM"}
{"compound": "CNc1nc(Nc2ccc(C#N)cc2)ncc1C#C[C@@H]1CCC[C@H](NC(=O)[C@H](C)N(C)C(=O)/C=C/CN(C)C)C1", "result": "< 10 nM"}
{"compound": "CCCNc1nc(Nc2cccc(F)c2)ncc1C#CCCCNC(=O)[C@H](CC)N(C)C(=O)/C=C/CN(C)C", "result": "< 10 nM"}
{"compound": "CCCNc1nc(Nc2ccc(C(N)=O)cc2)ncc1C(=O)Nc1cccc(NC(=O)C(C)(C)NC(=O)/C=C/CN(C)C)c1", "result": "< 10 nM"}
{"compound": "C[C@@H](C(=O)NCCCC#Cc1cnc(Nc2ccc(C#N)cc2)nc1N1CCC1)N(C)C(=O)/C=C/CN(C)C", "result": "< 10 nM"}

---

- target_entity: human FLT3 protein (FLT3 (WT)) (Homo sapiens)
- Construct: human FLT3 protein (intracellular region, 564 to 993 aa); GST; purchased Carna Biosciences; host or cells: baculovirus expression system
- experiment: FLT3 inhibition test (FLT3 enzyme inhibition, time-resolved fluorescence of substrate peptide phosphorylation)
- Format: biochemical
- run_parameters: FLT3 (WT) enzyme inhibition activity, GST-fused human FLT3 (564 to 993 aa), ATP 50 μM

{"cpd_smiles": "CCCNc1nc(Nc2ccc(C(N)=O)cc2)ncc1C(=O)Nc1cccc(NC(=O)[C@H](C)N(C)C(=O)/C=C/CNCCF)c1", "IC50": "< 10 nM"}

---

- target_entity: human FLT3 protein (FLT3 (WT)) (Homo sapiens)
- Construct: human FLT3 protein (intracellular region, 564 to 993 aa); GST; purchased Carna Biosciences; host or cells: baculovirus expression system
- experiment: FLT3 inhibition test (FLT3 enzyme inhibition, time-resolved fluorescence of substrate peptide phosphorylation)
- Type: biochemical
- run_parameters: GST-fused human FLT3 (564 to 993 aa), ATP 50 μM; read-out: FLT3 (WT) enzyme inhibition activity
- Description: The FLT3 inhibition test was performed for the compounds of the present invention by the method described below. A reaction mixture in a volume of 9 μL containing the FLT3 protein and a test compound of a predetermined concentration (1.2 μg of FLT3, 100 mM HEPES, 10 mM MgCl2, 25 mM NaCl, 0.01% BSA, 1 mM DTT, pH 7.5) was left standing at 25° C. for 15 minutes. […]
Catalogue of IC50 readings, one per entry.

{"molecule": "CCNc1nc(Nc2ccc(C#N)cc2)ncc1C#CCCCNC(=O)[C@H](C)N(C)C(=O)/C=C/CN(C)C", "IC50": "< 10 nM"}
{"molecule": "CCCNc1nc(Nc2cccc(F)c2)ncc1C#CCCCNC(=O)[C@@H]1C[C@@H](OC)CN1C(=O)/C=C/CN(C)C", "IC50": "< 10 nM"}
{"molecule": "C[C@@H](C(=O)NCCCC#Cc1cnc(Nc2cccc(F)c2)nc1NC1=CC2C=CC=NC2C=C1)N(C)C(=O)/C=C/CN(C)C (stereo partly drawn)", "IC50": "< 10 nM"}

---

- target_entity: human FLT3 protein (FLT3 (WT)) (Homo sapiens, UniProt P36888)
- Construct: human FLT3 protein (intracellular region, 564 to 993 aa); GST; purchased Carna Biosciences; host or cells: baculovirus expression system
- experiment: FLT3 inhibition test (FLT3 enzyme inhibition, time-resolved fluorescence of substrate peptide phosphorylation)
- Format: biochemical
- run_parameters: FLT3 (WT); read-out: FLT3 (WT) enzyme inhibition activity
IC50 reference
measured_quantity: IC50

{"molecule": "CCCNc1nc(Nc2ccc(-n3ccnn3)cc2)ncc1C#CCCCNC(=O)[C@H](C)N(C)C(=O)/C=C/CN(C)C [Compound 22-17]", "target_entity": "human FLT3 protein (FLT3 (WT)) (Homo sapiens, UniProt P36888)", "result": "< 10 nM"}
{"molecule": "CCCNc1nc(Nc2cnc3c(c2)c(C)nn3C)ncc1C#CCCCNC(=O)[C@@H]1CCCN1C(=O)/C=C/CN(C)C [Compound 22-45]", "target_entity": "human FLT3 protein (FLT3 (WT)) (Homo sapiens, UniProt P36888)", "result": "< 10 nM"}
{"molecule": "CCCNc1nc(Nc2ccc3c(c2)c(F)nn3C)ncc1C#CCCCNC(=O)[C@H](C)N(C)C(=O)/C=C/CN(C)C [Compound 22-60]", "target_entity": "human FLT3 protein (FLT3 (WT)) (Homo sapiens, UniProt P36888)", "result": "< 10 nM"}
{"molecule": "CCCNc1nc(Nc2ccc(-n3nccn3)cc2)ncc1C#CCCCNC(=O)[C@H](C)N(C)C(=O)/C=C/CN(C)C [Compound 22-16]", "target_entity": "human FLT3 protein (FLT3 (WT)) (Homo sapiens, UniProt P36888)", "result": "10 to 100 nM"}

---

- target_entity: human FLT3 protein (FLT3 (WT)) (Homo sapiens)
- Construct: human FLT3 protein (intracellular region, 564 to 993 aa); GST; purchased Carna Biosciences; host or cells: baculovirus expression system
- experiment: FLT3 inhibition test (FLT3 enzyme inhibition, time-resolved fluorescence of substrate peptide phosphorylation)
- Type: biochemical
- run_parameters: GST-fused human FLT3 (564 to 993 aa), ATP 50 μM; read-out: FLT3 (WT) enzyme inhibition activity
pIC50: −log10 of the molar value.

{"compound": "C[C@@H](C(=O)NCCCC#Cc1cnc(Nc2ccc(F)cc2)nc1N1CCN(C)CC1)N(C)C(=O)/C=C/CN(C)C", "target_entity": "human FLT3 protein (FLT3 (WT)) (Homo sapiens)", "pIC50": "> 8.00"}
{"compound": "CNc1nc(Nc2ccc(F)nc2)ncc1C#C[C@@H]1CCC[C@H](NC(=O)[C@H](C)N(C)C(=O)/C=C/CN(C)C)C1", "target_entity": "human FLT3 protein (FLT3 (WT)) (Homo sapiens)", "pIC50": "> 8.00"}
{"compound": "CCCNc1nc(Nc2ccc(C)cc2)ncc1C#CCCCNC(=O)[C@H](C)N(C)C(=O)/C=C/CN(C)C", "target_entity": "human FLT3 protein (FLT3 (WT)) (Homo sapiens)", "pIC50": "> 8.00"}
{"compound": "COCCCNc1nc(Nc2ccnc(OC)c2)ncc1C#CCCCNC(=O)[C@@H]1C[C@H](F)CN1C(=O)/C=C/CN(C)C", "target_entity": "human FLT3 protein (FLT3 (WT)) (Homo sapiens)", "pIC50": "> 8.00"}
{"compound": "CCCNc1nc(Nc2cccc(C(F)(F)F)c2)ncc1C#CCCCNC(=O)[C@H](C)N(C)C(=O)/C=C/CN(C)C", "target_entity": "human FLT3 protein (FLT3 (WT)) (Homo sapiens)", "pIC50": "> 8.00"}
{"compound": "COCCCNc1nc(Nc2ccc3cn[nH]c3c2)ncc1C#CCCCNC(=O)[C@@H]1CCCN1C(=O)/C=C/CN(C)C", "target_entity": "human FLT3 protein (FLT3 (WT)) (Homo sapiens)", "pIC50": "> 8.00"}
{"compound": "CCCNc1nc(Nc2ccc(C(N)=O)cc2)ncc1C#Cc1cccc(NC(=O)[C@H](C)N(C)C(=O)/C=C/CN(C)C)c1 [Compound 8-2]", "target_entity": "human FLT3 protein (FLT3 (WT)) (Homo sapiens)", "pIC50": "> 8.00"}
